Values from PubChem BioAssay (NCI)

Test system: SW-620 colon
Assay: NCI-60 one-dose screen, 48 h (100 = growth as untreated, 0 = no growth, -100 = all killed)
Settings: 10 µM unless noted
About 83,000 compounds went through this panel and 20% of them were active in at least one assay; those are over-represented in the sample as a whole.

molecule: Oc1ccc(-c2nc3ccc4[nH]ncc4c3c3c2CCCC3)c2cccnc12
unit abbreviation: %
growth: 7.64
//
molecule: O=[N+]([O-])c1ccc(Cl)c(-c2cc(CCCCO)on2)c1
unit abbreviation: %
growth: 104
//
molecule: Cc1ccc(/C=C2\Oc3ccc(O)c(O)c3C2=O)cc1
unit abbreviation: %
growth: 30.7
//
molecule: COc1ccc(S(=O)(=O)n2cc(C3OC(c4cc(OC)c(OC)c(OC)c4)=NN3C(C)=O)c3ccccc32)cc1OC (stereo not given)
unit abbreviation: %
growth: 97.9
//
molecule: COc1ccc(-c2nn(C(=O)c3cc(OC)c(OC)c(OC)c3)c3cc(N)ccc23)cc1
unit abbreviation: %
growth: 31.6
//
molecule: CCCCOc1nc2ccc(OC)cc2cc1-c1cc(-c2ccc(Cl)cc2)nc(-c2ccc(Cl)cc2)c1
unit abbreviation: %
growth: 102
//
molecule: N#Cc1c(Nc2cccc(Cl)c2)sc(C(=O)c2cc3cc(Cl)ccc3o2)c1N
unit abbreviation: %
growth: 18.2
//
molecule: COC(=O)C(Cc1ccccc1)NC(=O)NC(=O)NC(=O)CI (stereo not given)
unit abbreviation: %
growth: -28.4
//
molecule: CCN1C(=O)N(CC)C2Nn3c(s/c(=C\c4ccc([N+](=O)[O-])cc4)c3=O)=NC21 (stereo not given)
unit abbreviation: %
growth: 60.2
//
molecule: CC1=NN(c2ccc(S(=O)(=O)O)cc2)C(=O)C1N=Nc1ccc(-c2ccc(N=Nc3ccc(OS(=O)(=O)c4ccc(C)cc4)cc3)c(S(=O)(=O)O)c2)cc1 (stereo not given)
unit abbreviation: %
growth: 103
//
molecule: C=C1C(=O)O[C@H]2[C@H]1CC/C(COC(=O)CCSSCCC(=O)OC/C1=C/CC[C@@]3(C)O[C@H]3[C@H]3OC(=O)C(=C)[C@@H]3CC1)=C\CC[C@@]1(C)O[C@@H]21
unit abbreviation: %
growth: -77.7
//
molecule: COc1ccc(-c2[nH]c3ccc(OC)cc3c2/C=C(\C#N)S(=O)(=O)c2ccccc2)cc1
unit abbreviation: %
growth: 32.8
//
molecule: CN1C(=C2C(=O)OC(C)(C)OC2=O)CCC1C(=O)NCc1ccc(Cl)cc1Cl (stereo not given)
unit abbreviation: %
growth: 104
//
molecule: CCCCNC(=O)Oc1ccc(/C(=C(\C)c2ccc(Cl)cc2)c2ccc(OCCN(CC)CC)cc2)cc1
unit abbreviation: %
growth: 79.8
//
molecule: COc1ccc(/C=N/Nc2cc(=O)[nH]c3ccc(Cl)cc23)cc1
unit abbreviation: %
growth: 37.9
//
molecule: Cc1cccc(NCc2cn(-c3ccc(C(=O)O)cc3)nc2-c2ccc(C(=O)O)cc2)n1
unit abbreviation: %
growth: 99.9
//
molecule: COc1ccc([C@H]2c3cc(OC)c(OC)cc3C=C(C=O)C2CO)cc1OC (stereo not given in full)
unit abbreviation: %
growth: 21.5
//
molecule: CCCCCCCCCCCCCCCCCCOc1ccc(CC(=O)OCC[N+]2(C)CCCCC2)cc1
unit abbreviation: %
growth: 96.2
//
molecule: Cc1ccc2sc3c(NCCN)nc4ccccc4c3c(=O)c2c1
unit abbreviation: %
growth: -61.9
//
molecule: CCCCCCn1c(-c2ccc(C(=O)O/N=C(\N)c3ccc(OC)cc3)cc2)nc(-c2ccccc2)c1-c1ccccc1
unit abbreviation: %
growth: -1.32
//
molecule: NC1=C(c2nn[nH]n2)C(c2ccccc2Cl)c2ccc3ccccc3c2O1 (stereo not given)
unit abbreviation: %
growth: 48.8
//
molecule: Cc1ccc2c(n1)C(=O)C(Cl)=C(Nc1ccccc1C(C)C)C2=O
unit abbreviation: %
growth: 48.2
//
molecule: O=C(CCN1C(=O)/C(=C/c2ccc(O)cc2)SC1=S)Nc1ccc(Cl)cc1
unit abbreviation: %
growth: 101
//
molecule: CC(C)c1cc(C(C)C)c(S(=O)(=O)Oc2ccc(NC(=O)c3ccc(Cl)cc3)cc2)c(C(C)C)c1
unit abbreviation: %
growth: 21.7
//
molecule: Cc1ccc(/C=N\NC(=O)c2[nH]c3ccc(F)cc3c2-c2ccccc2)cc1
unit abbreviation: %
growth: 25.7
//
molecule: CN1CCN(Cc2ccc(NC(=O)c3cncc(C#Cc4cnccc4C#N)c3)cc2C(F)(F)F)CC1
unit abbreviation: %
growth: 50.7
//
molecule: CCN(CC)CCCNc1nc2ccccc2c2c(=O)c3cc(Cl)ccc3sc12
unit abbreviation: %
growth: 14.3
//
molecule: CCc1ccc2nc(NC(=O)Cc3csc(NC(=O)c4ccco4)n3)sc2c1
unit abbreviation: %
growth: 101
//
molecule: Cc1cc(O)c(C2=NN(c3ccc(S(N)(=O)=O)cc3)C(/C=C/c3ccccc3)C2)cc1Cl (stereo not given)
unit abbreviation: %
growth: 51.9
//
molecule: CCOC(=O)Nc1ccc(C(=O)/C=C/c2ccccc2)cc1
unit abbreviation: %
growth: 73.9
//
molecule: COc1cc(/C=C/c2c(C(C)=O)c(C)nc3ccccc23)cc(OC)c1OC
unit abbreviation: %
growth: 29.6
//
molecule: O=C1CSC(c2c(Cl)cccc2Cl)N1c1nc(Cl)cc(=O)[nH]1 (stereo not given)
unit abbreviation: %
growth: 102
//
molecule: COc1cc(C(=O)/C=C/c2ccc(OCCCCCC[P+](c3ccccc3)(c3ccccc3)c3ccccc3)cc2)cc(OC)c1OC
unit abbreviation: %
growth: -80.4
//
molecule: COc1ccc(-n2c(N)c(-c3nc4ccccc4[nH]3)cc(C#N)c2=O)cc1
unit abbreviation: %
growth: 106
//
molecule: Cc1cc(O)c(C2=NN(c3ccc(S(N)(=O)=O)cc3)C(c3ccccc3O)C2)cc1Cl (stereo not given)
unit abbreviation: %
growth: -0.676

###

Tested on: SF-539 CNS
Assay: NCI-60 one-dose screen, 48 h (100 = growth as untreated, 0 = no growth, -100 = all killed)
Conditions: 10 µM unless noted
Compounds without any hit were thinned out: in the full panel of roughly 83,000, 20% have a hit.

molecule: COC(=O)c1ccc2[nH]c(O)c(C(=Nc3ccc(N(C)C(=O)CN4CCN(C)CC4)cc3)c3ccccc3)c2c1
growth, %: -25.5
//
molecule: CCOC(=O)c1c(C)nc2c(c1N)CC(=O)N2Cc1ccc(F)cc1
growth, %: 92.9
//
molecule: CC(=O)OC[C@H]1OC(Sc2sc(C(=O)c3ccc(Br)cc3)c(N)c2-c2nc3ccccc3s2)[C@H](OC(C)=O)[C@@H](OC(C)=O)[C@H]1OC(C)=O (some centres undefined)
growth, %: 95.2
//
molecule: COc1ccc(C(=O)COC(=O)[C@H](C[Se][Se]C[C@H](NC(=O)c2ccc(Br)cc2F)C(=O)OCC(=O)c2ccc(OC)cc2)NC(=O)c2ccc(Br)cc2F)cc1
growth, %: -93.9

###

Tested on: MCF7 breast
Experiment: NCI-60 one-dose screen, 48 h
Settings: 10 µM unless noted
This is part of a sample that, as a whole, favours compounds with a hit. Of some 83,000 tested, about 20% had one in any assay. The source made the active and inactive calls. The calls were made as follows: active = growth percent below 10; inactive = the rest.
Possible outcomes: class 1 = active, class 0 = inactive

molecule: CCCCCCn1c(-c2ccc(C(=O)O/N=C(\N)c3ccc4c(c3)OCO4)cc2)nc(-c2ccccc2)c1-c1ccccc1
target or system: MCF7 breast
label: class 1
//
molecule: CCC(C)(c1cc(C(C)(C)C)c(O)c(C(C)(C)C)c1)c1cc(C(C)(C)C)c(O)c(C(C)(C)C)c1
target or system: MCF7 breast
label: class 0
//
molecule: Clc1ccc2c(c1)N(CCCN1CCCC1)c1ccccc1S2
target or system: MCF7 breast
label: class 1
//
molecule: CNc1nc2c(s1)C(c1cccc(F)c1)CC(=O)N2 (stereo not drawn)
target or system: MCF7 breast
label: class 0
//
molecule: O=[N+]([O-])c1ccc(Oc2nc(Nc3ccc(O[C@H]4CO[C@H]5[C@@H]4OC[C@@H]5O)c(Cl)c3)ncc2F)c(Cl)c1
target or system: MCF7 breast
label: class 0
//
molecule: NC(=O)Nc1ccc2ncnc(Nc3ccc(Cl)cc3)c2c1
target or system: MCF7 breast
label: class 0
//
molecule: CCCSc1nc2ccc(C)cc2cc1/C=[N+](\[O-])c1ccccc1
target or system: MCF7 breast
label: class 0
//
molecule: Cn1cc(-c2cc3ncnc(Nc4ccc(CC(=O)Nc5cc(C(C)(C)C)on5)cc4)c3s2)cn1
target or system: MCF7 breast
label: class 0

###

System: COLO 205 colon
Experiment: NCI-60 one-dose screen, 48 h (100 = growth as untreated, 0 = no growth, -100 = all killed)
Conditions: 10 µM unless noted
Method: Cells are grown in 96 well plates and exposed to the test compound for 48 hours. Compounds are tested at a single concentration, which is 10^-5 M for most compounds. The reported endpoint is percent growth (GI% or GIPRCNT), where numbers from 0 - 100% represent growth inhibition, and numbers from -100% - 0 represent cell death. For example, a value of 40 represents 60% growth inhibition. A value of 0 means no net growth occurred over the course of the experiment. […]
This is part of a sample that, as a whole, favours compounds with a hit. Of some 83,000 tested, about 20% had one in any assay.
Classification by growth follows these ranges: bin A: < 30%; bin B: ≥ 30% and < 90%; bin C: ≥ 90%

compound: Cc1nc2ccccc2c(/C=C/c2ccc(Cl)cc2)c1C(=O)/C=C/c1ccc(C(F)(F)F)cc1
label: bin A
//
compound: O=C(/C=C/c1sc(Cl)nc1Cl)c1ccc(F)cc1
label: bin B
//
compound: CNc1ccc(Nc2cccc(C)c2)c2c1C(=O)c1ccccc1C2=O
label: bin C
//
compound: CN1C(=C2C(=O)OC(C)(C)OC2=O)CCC1C(=O)NCc1ccc(Cl)cc1Cl (centres undefined)
label: bin C
//
compound: CC1=C(SCCC(=O)OC(C[Se]C2=C(C)C(=O)c3ccccc3C2=O)C(=O)NC(C)(C)C)C(=O)c2ccccc2C1=O (centres undefined)
label: bin A
//
compound: C=C(C)[C@@H]1CC[C@]2(N=C=O)CC[C@]3(C)[C@H](CC[C@@H]4[C@@]5(C)Cc6c([nH]c7ccccc67)C(C)(C)[C@@H]5CC[C@]43C)[C@@H]12
label: bin B
//
compound: O=c1c2cc(F)cc(Cl)c2sc2c(NCCCNCCO)nc3ccccc3c12
label: bin B
//
compound: NCCNc1nc2ccccc2c2c(=O)c3cc(F)ccc3sc12
label: bin A
//
compound: CC(C)(C)NC(=O)C(OC(=O)c1cccc(Cl)c1)c1ccc(Cl)cc1 (centres undefined)
label: bin C
//
compound: COc1cccc(OC)c1C(=O)N[C@@H]1C(=O)N2[C@@H]1SC(C)(C)[C@@H]2C(=O)O
label: bin C
//
compound: Cc1[nH]c(C(=O)Nc2ccc(C(=O)N3CCNCC3)cc2OC(C)C)c(Cl)c1Cl
label: bin A
//
compound: Cc1ccc(C(=O)N/N=C/c2cccc(Oc3ccccc3)c2)cn1
label: bin B
//
compound: COc1ccc(-c2nn(C(=O)c3cc(OC)c(OC)c(OC)c3)c3cc(N)ccc23)cc1
label: bin A
//
compound: NC1=C(c2nn[nH]n2)C(c2ccccc2Cl)c2ccc3ccccc3c2O1 (centres undefined)
label: bin B
//
compound: CCCCCCCCCCCCCCCCCCOc1ccccc1CCCOP(=O)(O)OCC[N+](C)(C)C
label: bin B
//
compound: Cc1ccc(C(=O)NCCNc2nccc(-c3c(-c4cccc(F)c4)nc4sccn34)n2)cc1
label: bin A
//
compound: CCCCCCNC(=O)Oc1ccc(/C(=C(\C)c2ccc(Cl)cc2)c2ccc(OCCN3CCCCC3)cc2)cc1
label: bin A
//
compound: Cc1ccc(C(C)C)cc1C(=O)C[n+]1ccccc1
label: bin C
//
compound: O=c1c2cccc(F)c2sc2c(NCCCNCCO)nc3ccccc3c12
label: bin A
//
compound: CCOC(=O)Nc1ccc(-c2nc(-c3cccc(OCCN4CCOCC4)c3)c(-c3ccnc(Br)c3)[nH]2)cc1
label: bin B
//
compound: Cc1cccc(NC2=C(Cl)C(=O)c3nc(C)ccc3C2=O)c1
label: bin C
//
compound: Cn1cc(-c2cc3ncnc(Nc4ccc(CC(=O)Nc5cc(C(C)(C)C)nn5C)cc4)c3s2)cn1
label: bin B
//
compound: Cc1oc2nc[nH]c(=O)c2c1C(=O)/C=C/c1ccc(Br)cc1
label: bin A
//
compound: O=c1c2cc(F)ccc2sc2c(NCCO)nc3ccccc3c12
label: bin C
//
compound: NCCCNc1nc2ccccc2c2c(=O)c3cc(OC(F)(F)F)ccc3sc12
label: bin A
//
compound: CC(=O)O.CN1[CH-]N(Cc2ccc(C#N)cc2)c2ccccc21.[Ag+]
label: bin B
//
compound: Cc1nc(/N=C(\N)NC(=O)Nc2cccc(Cl)c2)sc1C
label: bin B
//
compound: COc1cccc(-c2nn(-c3ccccc3)cc2-c2ccnc(N3CCOCC3)c2)c1
label: bin C
